The reported measurements were obtained from the OligoGym collection.

Target: E2F1
Conditions: ASO; also: test concentration or dose not given here
These antisense oligonucleotides have a phosphorothioate backbone; sugars and methylation of C are not fully specified.
remaining target (mRNA or protein) (fraction of control) by entry:
The reply should be a number, written without any unit.

# annotated cases, reported remaining target (mRNA or protein) (fraction of control) shown
{"columns": ["Sequence String", "Result Value"],
 "data": [
  ["GCTCCAGGCTGAGTAGAGAC", 0.73],
  ["CACCTTTTCCTGGATGGCGG", 0.47],
  ["CCACTCACCTCTCCCATCTC", 0.72]
]}

Asked: Given `CTGCAATGCTACGAAGGTCC` , state its recorded remaining target (mRNA or protein) (fraction of control).
Given back: 0.26

Asked: # input sequence: `TCCTGCAGCTGTCGGAGGTC` ; wanted: its remaining target (mRNA or protein) (fraction of control)
Given back: 0.8

Asked: Request the reported remaining target (mRNA or protein) (fraction of control) associated with `ACCTACGGTCTCCTCAGGGC`
Given back: 0.21

###

Molecular target: FADD
Settings: ASO
These antisense oligonucleotides have a phosphorothioate backbone; sugars and methylation of C are not fully specified.
Measure Name: remaining target (mRNA or protein) (fraction of control)
Lab note: write the figure by itself, no unit.

{"columns": ["Sequence String", "Result Value"],
 "data": [
  ["CGCAGCTTGAGTTCAGAA", 0.65],
  ["TACCAGGTCAGCCACCAG", 0.91],
  ["ACACCGAGTGCAGCAGCA", 0.82]
]}

Asked: I'd like to know its remaining target (mRNA or protein) (fraction of control). The sequence in question is `CGCGCCCGAGGCATAGGA`
Given back: 0.75

###

Molecular target: MAP2K7
Details: ASO
These antisense oligonucleotides have a phosphorothioate backbone; sugars and methylation of C are not fully specified.
Measure Name: remaining target (mRNA or protein) (fraction of control)
Form rule: numeric answer, no unit written next to it.

Known remaining target (mRNA or protein) (fraction of control) results, listed for orientation:
{"columns": ["Sequence String", "Result Value"],
 "data": [
  ["AGAGCTTGATCTGGCCCCGC", 0.84],
  ["CTTTAGTAAGGCAGTCTTTG", 0.7],
  ["TCCAGGGAGGACGCCGCCAT", 0.64]
]}

Asked: // returns reported remaining target (mRNA or protein) (fraction of control) for input `AGTCCGCGGTGACTCAGGTC`
Given back: 0.87

###

Molecular target: TNFRSF1A
Settings: ASO
These antisense oligonucleotides have a phosphorothioate backbone; sugars and methylation of C are not fully specified.
remaining target (mRNA or protein) (fraction of control) values for the sequences below.
The answer should be a number; do not append a unit.

Recorded remaining target (mRNA or protein) (fraction of control), per entry:
{"columns": ["Sequence String", "Result Value"],
 "data": [
  ["ACGGTCCCATTGAGGCAG", 0.66],
  ["TTAAACCAATGAAGAGGA", 0.72],
  ["TTCTCTGGACTGAGGCTC", 0.81],
  ["TTGTTCCGTGCTCGCCCC", 0.59],
  ["GTTCCTTTGTGGCACTTG", 0.88],
  ["GCAGAGGGCACAGGAGTG", 0.76]
]}

Asked: Query: remaining target (mRNA or protein) (fraction of control); subject: `GGACTGAAGCCCAGGGTG`
Given back: 0.88

Asked: Which value of remaining target (mRNA or protein) (fraction of control) has been reported for `CGCAAACCACCCACTCAG` in the records?
Given back: 0.49

Asked: Query (sequence): `GTGGAACTGGGCACGGGA` ; field requested: remaining target (mRNA or protein) (fraction of control)
Given back: 0.96

Asked: What value of remaining target (mRNA or protein) (fraction of control) has been recorded for this entry: `CTGTCCTCCCACTTCTGA`
Given back: 0.84

Asked: Requested field: remaining target (mRNA or protein) (fraction of control). Item: `ACTGTGGTGCCTGAGTCC`
Given back: 0.69
